Target: Recombinant (1-346) HPK1 (h) (Homo sapiens, UniProt Q92918)
Construct: Recombinant (1-346) HPK1 (h) is incubated with 8 mM MOPS pH 7.0
Sequence (Q92918 1-346): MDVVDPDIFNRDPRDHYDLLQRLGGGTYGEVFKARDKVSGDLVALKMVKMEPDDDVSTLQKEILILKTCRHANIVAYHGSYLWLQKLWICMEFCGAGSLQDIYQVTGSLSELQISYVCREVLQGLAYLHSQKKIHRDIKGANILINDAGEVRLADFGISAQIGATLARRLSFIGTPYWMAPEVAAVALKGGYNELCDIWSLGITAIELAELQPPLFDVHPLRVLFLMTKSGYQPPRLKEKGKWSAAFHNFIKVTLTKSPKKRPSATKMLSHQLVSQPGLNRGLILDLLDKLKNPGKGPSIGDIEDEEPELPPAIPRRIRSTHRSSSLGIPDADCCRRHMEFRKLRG
Assay: HPK1 human STE kinase enzymatic radiometric assay
Assay type: biochemical
Conditions: read-out: HPK1 IC50 nM Range
Readout name: IC50

Answered examples (6):
• CCN(C)Cc1cc(-c2nc(-c3ccc4c(=O)[nH]cc(C)c4c3)c(N)nc2F)ccc1C1CCOCC1 [Example I-239] = 0.1 to 10 nM
• CC(C)N1CC=C(c2ccc(-c3nc(-c4cc5c(cc4F)C(=O)NCC5)c(N)nc3F)cc2)CC1 [Example I-9] = 0.1 to 10 nM
• CN(C)Cc1cc(-c2nc(-c3cc4c(cc3F)C(=O)NCC4)c(N)nc2F)ccc1F [Example I-273] = 11 to 100 nM
• Nc1nc(F)c(-c2ccc(OC3CCOCC3)c(CN3CCC3)c2)nc1-c1cc(F)c2c(c1)CCNC2=O [Example I-210] = 11 to 100 nM
• COc1c[nH]c(=O)c2ccc(-c3nc(-c4ccc(N5CCN(C(C)C)CC5)cc4)c(F)nc3N)cc12 [Example I-119] = 11 to 100 nM
• CNCC1Cc2cc(-c3nc(-c4ccc(N5CCN(C(C)C)CC5)cc4)c(F)nc3N)ccc2C(=O)N1 (stereo not shown) [Example I-11] = 0.1 to 10 nM

Form: molecule = COc1ccc(-c2nc(-c3cc4c(cc3F)C(=O)NCC4)c(N)nc2F)cc1CN(C)C [Example I-249] ; IC50 = 0.1 to 10 nM

* * *

Below, each entry is listed alongside its reported IC50.
Molecular target: Recombinant (1-346) HPK1 (h) (Homo sapiens, UniProt Q92918)
Construct: Recombinant (1-346) HPK1 (h) is incubated with 8 mM MOPS pH 7.0
Assay: HPK1 human STE kinase enzymatic radiometric assay
Type: biochemical
Conditions: read-out: HPK1 IC50 nM Range

Recorded result, "CN(C)Cc1cc(-c2nc(-c3cc(F)c4c(c3)CCNC4=O)c(N)nc2F)ccc1OCC1CCOCC1" , IC50: 0.1 to 10 nM

The recorded IC50 for "Cc1c[nH]c(=O)c2ccc(-c3nc(-c4ccc(O)c(CN(C)C)c4)c(F)nc3N)cc12" is 11 to 100 nM

IC50 reported for this compound "COC1CCN(Cc2cc(-c3nc(-c4cc5c(cc4F)C(=O)NCC5)c(N)nc3F)ccc2N2CCSCC2)CC1" : 11 to 100 nM

Field IC50 (entry "Cc1cc(-c2nc(-c3ccc4c(=O)[nH]cc(F)c4c3)c(N)nc2F)cc2c1CCN(C)C2" ) reads 0.1 to 10 nM

Short answer for COC1CCN(Cc2cc(-c3nc(-c4ccc5c(c4)CCNC5=O)c(N)nc3F)ccc2N2CCOCC2)C1 (stereo not shown) : IC50 was 0.1 to 10 nM

For "CN(C)Cc1cc(-c2nc(-c3ccc4c(=O)[nH]cc(Cl)c4c3)c(N)nc2F)ccc1C1CCOCC1" the compound record lists IC50 as 0.1 to 10 nM

Documented IC50 of "Nc1nc(F)c(-c2ccc(N3CCOCC3)c(CN3CCC3)c2)nc1-c1cc(F)c2c(c1)CCNC2=O" : 0.1 to 10 nM

* * *

Biological target: Lck (h) (Homo sapiens, UniProt P06239)
Sequence (P06239 whole entry): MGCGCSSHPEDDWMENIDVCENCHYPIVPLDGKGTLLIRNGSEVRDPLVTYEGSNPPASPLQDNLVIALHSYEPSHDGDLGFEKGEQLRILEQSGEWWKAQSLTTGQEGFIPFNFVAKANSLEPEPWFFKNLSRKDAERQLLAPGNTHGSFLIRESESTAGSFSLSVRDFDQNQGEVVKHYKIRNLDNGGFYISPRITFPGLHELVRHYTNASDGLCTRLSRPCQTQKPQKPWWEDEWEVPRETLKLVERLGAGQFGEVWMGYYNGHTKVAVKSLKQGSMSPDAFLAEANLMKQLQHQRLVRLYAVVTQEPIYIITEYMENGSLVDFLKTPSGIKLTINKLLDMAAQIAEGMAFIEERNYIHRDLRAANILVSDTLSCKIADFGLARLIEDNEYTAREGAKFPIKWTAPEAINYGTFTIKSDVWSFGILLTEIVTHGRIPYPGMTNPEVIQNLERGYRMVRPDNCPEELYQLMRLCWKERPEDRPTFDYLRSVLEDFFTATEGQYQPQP
Experiment: Lck human STE kinase enzymatic radiometric assay
Format: biochemical
Details: read-out: Lck IC50 nM Range
# reported IC50; entries follow

* CC(C)N1CCC(c2ccc(-c3nc(-c4cc(F)c5c(c4)CCNC5=O)c(N)nc3F)cc2)CC1 | 101 to 1000 nM

Field IC50 (Lck (h) (Homo sapiens, UniProt P06239)), entry "CC(C)N1C[C@H]2C[C@@]2(c2ccc(-c3nc(-c4cc5c(cc4F)C(=O)NCC5)c(N)nc3F)cc2)C1" : > 1000 nM

The reported Lck (h) (Homo sapiens, UniProt P06239) IC50 of "Cc1cc2cc(-c3nc(-c4ccc(C5CCOCC5)c(CN(C)C)c4)c(F)nc3N)cc(F)c2c(=O)[nH]1" is > 1000 nM

Assay Lck (h) (Homo sapiens, UniProt P06239), sample "CC(C)N1C[C@@H]2C[C@]2(c2ccc(-c3nc(-c4cc5c(cc4F)C(=O)NCC5)c(N)nc3F)cc2)C1" , IC50 read: 101 to 1000 nM

The measured IC50 that "Nc1nc(F)c(-c2ccc(C3CCOCC3)c([C@@H]3CCCN3)c2)nc1-c1ccc2c(c1)CCNC2=O" showed for Lck (h) (Homo sapiens, UniProt P06239) is > 1000 nM

The observed IC50 for "C[C@@H]1CN(c2ccc(-c3nc(-c4ccc5c(c4)CCNC5=O)c(N)nc3F)cc2CN(C)C)CCO1" when tested with Lck (h) (Homo sapiens, UniProt P06239) stands at > 1000 nM

"Nc1nc(F)c(-c2ccc(N3CCN(CCC4CC4)CC3)cc2)nc1-c1cc(F)c2c(c1)CCNC2=O" tested on Lck (h) (Homo sapiens, UniProt P06239) gave IC50: > 1000 nM
